test: Solubility of the compound in ammonium carbonate solution at pH 8; type: physicochemical; conditions: buffer
Non-standard residues stand in square brackets, D forms with d. Residues, ends and D or L forms follow the SMILES beside them. NMeL = CN[C@@H](CC(C)C)C(=O)O
Property: solubility

CC[C@H](C)[C@H](NC(=O)[C@H](CCCNC(=N)N)NC(=O)[C@H](CCSC)NC(=O)[C@@H](N)CCC(=O)O)C(=O)N[C@@H](CO)C(=O)N[C@@H](CCCNC(=N)N)C(=O)N[C@H](C(=O)N[C@H](C(=O)N(C)[C@@H](CC(C)C)C(=O)N[C@@H](CC(=O)O)C(=O)N[C@@H](Cc1ccccc1)C(=O)N[C@@H](CC(C)C)C(=O)N[C@@H](Cc1ccccc1)C(=O)O)[C@@H](C)CC)[C@@H](C)CC (H-EMRISRII[NMeL]DFLF-OH)	Insoluble
CC[C@H](C)[C@H](NC(=O)[C@H](CCCNC(=N)N)NC(=O)[C@H](CCSC)NC(=O)[C@@H](N)CCC(=O)O)C(=O)N[C@@H](CO)C(=O)N[C@@H](CCCNC(=N)N)C(=O)N[C@H](C(=O)N[C@H](C(=O)N[C@@H](CC(C)C)C(=O)N[C@@H](CC(=O)O)C(=O)N[C@@H](Cc1ccccc1)C(=O)N(C)[C@@H](CC(C)C)C(=O)N[C@@H](Cc1ccccc1)C(=O)O)[C@@H](C)CC)[C@@H](C)CC (H-EMRISRIILDF[NMeL]F-OH)	Insoluble

---

system: Streptococcus pneumoniae D39; experiment: Antagonist activity at ComD1 receptor in Streptococcus pneumoniae D39 harboring pcomX/lacZ reporter gene assessed as inhibiton of CSP1-stimulated maximum signal at 10 uM preincubated for 30 mins followed by 50 nM CSP1 addition by ONPG based beta-galactosidase assay relative to native CSP1
Active and inactive are the calls of the source. No cut-off for these calls is given here. Non-standard residues stand in square brackets, D forms with d. Residues, ends and D or L forms follow the SMILES beside them. NMeI = CC[C@H](C)[C@H](NC)C(=O)O
Property: inhibition

CC[C@H](C)[C@H](NC(=O)[C@H](CCCNC(=N)N)NC(=O)[C@H](CO)NC(=O)[C@H]([C@@H](C)CC)N(C)C(=O)[C@H](CCCNC(=N)N)NC(=O)[C@H](CCSC)NC(=O)[C@@H](N)CCC(=O)O)C(=O)N[C@H](C(=O)N[C@@H](CC(C)C)C(=O)N[C@@H](CC(=O)O)C(=O)N[C@@H](Cc1ccccc1)C(=O)N[C@@H](CC(C)C)C(=O)N[C@@H](Cc1ccccc1)C(=O)O)[C@@H](C)CC (H-EMR[NMeI]SRIILDFLF-OH)	inactive
CC[C@H](C)[C@H](NC(=O)[C@H](CCCNC(=N)N)NC(=O)[C@H](CCSC)NC(=O)[C@@H](N)CCC(=O)O)C(=O)N[C@@H](CO)C(=O)N[C@@H](CCCNC(=N)N)C(=O)N[C@H](C(=O)N(C)[C@H](C(=O)N[C@@H](CC(C)C)C(=O)N[C@@H](CC(=O)O)C(=O)N[C@@H](Cc1ccccc1)C(=O)N[C@@H](CC(C)C)C(=O)N[C@@H](Cc1ccccc1)C(=O)O)[C@@H](C)CC)[C@@H](C)CC (H-EMRISRI[NMeI]LDFLF-OH)	inactive
CC[C@H](C)[C@H](NC(=O)[C@H](CCCNC(=N)N)NC(=O)[C@H](CCSC)NC(=O)[C@@H](N)CCC(=O)O)C(=O)N[C@@H](CO)C(=O)N[C@@H](CCCNC(=N)N)C(=O)N(C)[C@H](C(=O)N[C@H](C(=O)N[C@@H](CC(C)C)C(=O)N[C@@H](CC(=O)O)C(=O)N[C@@H](Cc1ccccc1)C(=O)N[C@@H](CC(C)C)C(=O)N[C@@H](Cc1ccccc1)C(=O)O)[C@@H](C)CC)[C@@H](C)CC (H-EMRISR[NMeI]ILDFLF-OH)	inactive

---

assay: Agonist activity at ComD1 receptor in Streptococcus pneumoniae D39 harboring pcomX/lacZ reporter gene incubated for 30 mins by ONPG based beta-galactosidase assay
Non-standard residues stand in square brackets, D forms with d. Residues, ends and D or L forms follow the SMILES beside them. NMeD = CN[C@@H](CC(=O)O)C(=O)O
Property: EC50

Data point: CC[C@H](C)[C@H](NC(=O)[C@H](Cc1ccccc1)NC(=O)[C@H](CC(=O)O)N(C)C(=O)[C@H](CCCNC(=N)N)NC(=O)[C@H](Cc1ccccc1)NC(=O)[C@H](Cc1ccccc1)NC(=O)[C@H](CCCCN)NC(=O)[C@H](CO)NC(=O)[C@H](CC(C)C)NC(=O)[C@H](CCCNC(=N)N)NC(=O)[C@H](CCSC)NC(=O)[C@@H](N)CCC(=O)O)C(=O)N[C@@H](CC(C)C)C(=O)N[C@@H](CCC(N)=O)C(=O)N[C@@H](CCCNC(=N)N)C(=O)O (H-EMRLSKFFR[NMeD]FILQR-OH) ; EC50 = > 1000 nM

---

system: Streptococcus pneumoniae D39; assay: Agonist activity at ComD1 receptor in Streptococcus pneumoniae D39 harboring pcomX/lacZ reporter gene at 10 uM incubated for 30 mins by ONPG based beta-galactosidase assay relative to native CSP1
Activity calls are given as the source filed them. The calls are words filed in the database; no cut-off is given here. Non-standard residues stand in square brackets, D forms with d. Residues, ends and D or L forms follow the SMILES beside them. NMeR = CN[C@@H](CCCNC(=N)N)C(=O)O; NMeF = CN[C@@H](Cc1ccccc1)C(=O)O; NMeI = CC[C@H](C)[C@H](NC)C(=O)O; NMeL = CN[C@@H](CC(C)C)C(=O)O; NMeK = CN[C@@H](CCCCN)C(=O)O
Property: Activity

Here is how some molecules turned out for Activity.
CC[C@H](C)[C@H](NC(=O)[C@H](Cc1ccccc1)NC(=O)[C@H](CC(=O)O)NC(=O)[C@H](CCCNC(=N)N)N(C)C(=O)[C@H](Cc1ccccc1)NC(=O)[C@H](Cc1ccccc1)NC(=O)[C@H](CCCCN)NC(=O)[C@H](CO)NC(=O)[C@H](CC(C)C)NC(=O)[C@H](CCCNC(=N)N)NC(=O)[C@H](CCSC)NC(=O)[C@@H](N)CCC(=O)O)C(=O)N[C@@H](CC(C)C)C(=O)N[C@@H](CCC(N)=O)C(=O)N[C@@H](CCCNC(=N)N)C(=O)O (H-EMRLSKFF[NMeR]DFILQR-OH)	inactive
CC[C@H](C)[C@H](NC(=O)[C@H](Cc1ccccc1)NC(=O)[C@H](CC(=O)O)NC(=O)[C@H](CCCNC(=N)N)NC(=O)[C@H](Cc1ccccc1)NC(=O)[C@H](Cc1ccccc1)NC(=O)[C@H](CCCCN)N(C)C(=O)[C@H](CO)NC(=O)[C@H](CC(C)C)NC(=O)[C@H](CCCNC(=N)N)NC(=O)[C@H](CCSC)NC(=O)[C@@H](N)CCC(=O)O)C(=O)N[C@@H](CC(C)C)C(=O)N[C@@H](CCC(N)=O)C(=O)N[C@@H](CCCNC(=N)N)C(=O)O (H-EMRLS[NMeK]FFRDFILQR-OH)	> 75%
CC[C@H](C)[C@H](NC(=O)[C@H](CCCNC(=N)N)NC(=O)[C@H](CCSC)NC(=O)[C@@H](N)CCC(=O)O)C(=O)N[C@@H](CO)C(=O)N[C@@H](CCCNC(=N)N)C(=O)N[C@H](C(=O)N[C@H](C(=O)N[C@@H](CC(C)C)C(=O)N[C@@H](CC(=O)O)C(=O)N[C@@H](Cc1ccccc1)C(=O)N(C)[C@@H](CC(C)C)C(=O)N[C@@H](Cc1ccccc1)C(=O)O)[C@@H](C)CC)[C@@H](C)CC (H-EMRISRIILDF[NMeL]F-OH)	inactive
CC[C@H](C)[C@H](NC(=O)[C@H](CCCNC(=N)N)NC(=O)[C@H](CCSC)NC(=O)[C@@H](N)CCC(=O)O)C(=O)N[C@@H](CO)C(=O)N[C@@H](CCCNC(=N)N)C(=O)N(C)[C@H](C(=O)N[C@H](C(=O)N[C@@H](CC(C)C)C(=O)N[C@@H](CC(=O)O)C(=O)N[C@@H](Cc1ccccc1)C(=O)N[C@@H](CC(C)C)C(=O)N[C@@H](Cc1ccccc1)C(=O)O)[C@@H](C)CC)[C@@H](C)CC (H-EMRISR[NMeI]ILDFLF-OH)	inactive

Moving on to the next molecule.
So, CC[C@H](C)[C@H](NC(=O)[C@H](Cc1ccccc1)NC(=O)[C@H](CC(=O)O)NC(=O)[C@H](CCCNC(=N)N)NC(=O)[C@H](Cc1ccccc1)N(C)C(=O)[C@H](Cc1ccccc1)NC(=O)[C@H](CCCCN)NC(=O)[C@H](CO)NC(=O)[C@H](CC(C)C)NC(=O)[C@H](CCCNC(=N)N)NC(=O)[C@H](CCSC)NC(=O)[C@@H](N)CCC(=O)O)C(=O)N[C@@H](CC(C)C)C(=O)N[C@@H](CCC(N)=O)C(=O)N[C@@H](CCCNC(=N)N)C(=O)O (H-EMRLSKF[NMeF]RDFILQR-OH) ? Its Activity was > 75%

Cited source: ChEMBL document CHEMBL4364271
